Attribution: ChEMBL document CHEMBL1201862

- Test system: KM12
- experimental.protocol: NCI tumour cell line growth inhibition, 48 h
Activity calls are given as the source filed them. Cut-off read from the data, not from the text of the source: active = GI50 up to about 1.1 µM and inactive = higher.
Could you please report measured GI50 for the items listed next?

{"columns": ["molecule", "measured.quantity", "endpoint.result"],
 "data": [
  ["FC(F)(F)c1ccc(/C=N/C23CC4CC(CC(C4)C2)C3)cc1", "GI50", "> 100 µM (inactive)"],
  ["CN(C)c1ncnc2c1ncn2C1C=CC(COS(N)(=O)=O)C1 (configuration not stated)", "GI50", "> 100 µM (inactive)"],
  ["COc1ccc(CN(Cc2ccc(OC)cc2)C(=O)CC2(O)C=CCC2)cc1 (configuration not stated)", "GI50", "45.9 µM (inactive)"],
  ["[N-]=[N+]=NCC1OC(n2cnc3c(N)ncnc32)C2OC12 (configuration not stated)", "GI50", "> 100 µM (inactive)"],
  ["O=C(CC(Cc1ccccc1)c1ccc(Oc2ccccc2)cc1)Nc1cccc(Cl)c1 (configuration not stated)", "GI50", "3.29 µM (inactive)"]
]}

Batch request: GI50 for each of the following molecules.
1. CCCCCCCC(CC(=O)NC(CO)C(=O)NC(CO)CC(C)C)OC(=O)CC(CCCCCCC)OC(=O)CC(CCCCCCC)OC1OC(C)C(O)C(OC2OC(C)C(O)C(O)C2O)C1O (configuration not stated)
2. C=C1c2nc3ccccc3n2C=C(c2ccccc2)N1c1ccc(C)cc1

Data returned:
1: 11.7 µM (inactive); 2: 22.7 µM (inactive)

* * *

Could you please report measured GI50 for the items listed next?
- Tested on: SK-MEL-2
- experimental.protocol: NCI tumour cell line growth inhibition, 48 h
Calls of active or inactive are those of the source. No stated cut-off is given here; in the data, active = GI50 up to about 1.1 µM and inactive = higher.

Previously resolved entries follow.
{"columns": ["molecule", "GI50"],
 "data": [
  ["CCOC(=O)CNC(=O)C(CSC(=O)N(C)O)NC(=O)CCC(N)C(=O)O (configuration not stated)", "378 µM (inactive)"],
  ["CN1CC=C(C#CC(C)(C)O)CC1", "> 37.5 µM (inactive)"],
  ["Cn1cnc([N+](=O)[O-])c1Sc1nccn1-c1ccccc1", "21.4 µM (inactive)"],
  ["C=CCCCC1CCCNC1=O (configuration not stated)", "> 100 µM (inactive)"]
]}

Batch request: GI50 for each of the following molecules.
1. CC(C)CCC[C@@H](C)C1CCC2[C@@H]3CC=C4C[C@@H](C(=O)NCCN(C)C)CC[C@]4(C)C3CC[C@@]21C (some centres not stated)
2. O=S(=O)(c1ccccc1)N1CCCC(c2ccccc2)CC1 (configuration not stated)
3. CCOC(=O)C1=CC(C)(C(=O)OCC)Nc2c(nc(SC)[nH]c2=O)N1 (configuration not stated)

Data returned:
["11.5 µM (inactive)", "45.9 µM (inactive)", "> 10 µM (inactive)"]

Batch request: GI50 for each of the following molecules.
1. N#C/C(=C(/S)Nc1ccccc1)c1nc2ccccc2[nH]1
2. CC(=O)OCC(OC(C)=O)C(OC(C)=O)C(C=NN(C(C)=O)S(=O)(=O)c1ccc(/C=C2\NC(=O)NC2=O)cc1)OC(C)=O (configuration not stated)
3. CC1=Nc2c(ccc3c2C(=O)c2ccccc2C3=O)NC(c2cccc3c2CCC3)C1 (configuration not stated)
4. Cc1cc2c(cc1C(=O)c1ccc(N)cc1)OCO2
5. C=CCOc1cc2c(cc1C(C)c1ccc(OC)cc1)OCO2 (configuration not stated)
6. CC1=COC(=O)c2ccccc2N1

Data returned:
["> 10 µM (inactive)", "> 100 µM (inactive)", "> 80.9 µM (inactive)", "23.9 µM (inactive)", "16.6 µM (inactive)", "> 100 µM (inactive)"]

Batch request: GI50 for each of the following molecules.
1. COC(=O)c1nn2ccc3ccccc3c2c1C(=O)OC
2. [N-]=[N+]=NCC1OC(n2cnc3c(N)ncnc32)C2OC12 (configuration not stated)
3. CC(=O)NNc1nc(C)c(C(=O)NNC(=O)C(=O)Nc2ccccc2C#N)s1
4. COc1cc(/C=C\c2nnc(/C=C\c3ccc(O)c(OC)c3)s2)ccc1O
5. COS(=O)(=O)OCCC(NC(=O)OCc1ccccc1)C(=O)OCc1ccccc1 (configuration not stated)
6. Nc1c(C(=O)O)c2ccc([N+](=O)[O-])cc2c(=O)n1-c1nc2ccccc2s1
7. CCN(c1ccccc1)[C@H]1C(=O)N(c2ccc([N+](=O)[O-])cc2)[C@H]1c1ccc(OC)cc1

Data returned:
1. > 100 µM (inactive)
2. > 100 µM (inactive)
3. > 100 µM (inactive)
4. 3.61 µM (inactive)
5. > 100 µM (inactive)
6. > 100 µM (inactive)
7. > 100 µM (inactive)

Batch request: GI50 for each of the following molecules.
1. CC(C)(C)C1=CC(=C2C=Cc3cc(O)ccc3O2)C=C(C(C)(C)C)C1=O
2. N#Cc1c(-c2ccc([N+](=O)[O-])cc2)cc(-c2ccc(Nc3ccnc4cc(Cl)ccc34)cc2)nc1N

Data returned:
1. 1.63 µM (inactive)
2. 14.7 µM (inactive)
